# measurement target: AngaD7L2 (Anopheles gambiae, UniProt A0A1S4GYJ6)
# Sequence (A0A1S4GYJ6 19-315): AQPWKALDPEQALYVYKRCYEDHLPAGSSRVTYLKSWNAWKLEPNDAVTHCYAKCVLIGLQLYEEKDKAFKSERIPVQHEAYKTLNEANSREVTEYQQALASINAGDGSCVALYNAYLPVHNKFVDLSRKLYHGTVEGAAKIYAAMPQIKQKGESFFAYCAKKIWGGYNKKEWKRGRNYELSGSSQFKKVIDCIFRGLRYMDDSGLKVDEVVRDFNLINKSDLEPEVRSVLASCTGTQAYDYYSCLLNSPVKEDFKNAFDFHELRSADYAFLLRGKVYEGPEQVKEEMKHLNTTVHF
readout type: Kd (µM)

> print(dat)
                            chemical.string  readout.value
1  CCCCC/C=C\C\C=C/C=C/C=C/[C@@H](SC[C@H](N)C(=O)NCC(=O)O)[C@@H](O)CCCC(=O)O              1
2  CCCCC/C=C\C[C@@H](O)/C=C/C=C/C=C\[C@@H](O)CCCC(=O)O            0.8
